Items are presented alongside their recorded Solubility in SAIB.
experiment: Solubility study of PSD in heated SAIB, HPLC; format: physicochemical; details: SAIB temperature 150° C., 30 min, three replicates
Supply the numeric figure in mg/g, leaving out any unit text.

- compound: "NC(=O)N1c2ccccc2C=Cc2ccccc21 [Carbamazepine]"
  reading: 76.5
- compound: "CO[C@H]1C[C@@H]2CC[C@@H](C)[C@@](O)(O2)C(=O)C(=O)N2CCCC[C@H]2C(=O)O[C@H]([C@H](C)C[C@@H]2CC[C@@H](O)[C@H](OC)C2)CC(=O)[C@H](C)/C=C(\\C)[C@@H](O)[C@@H](OC)C(=O)[C@H](C)C[C@H](C)/C=C/C=C/C=C/1C [Sirolimus]"
  reading: 1.9

Then this compound:
Prompt line: Bench note: what Solubility in SAIB did C[C@@H]1CCO[C@H]2Cn3cc(C(=O)NCc4ccc(F)cc4F)c(=O)c(O)c3C(=O)N12 [Dolutegravir] show?
Response line: 1.7
